Each recorded value in this set is attributed to PubChem BioAssay.

assay: inhibition of 3D7 malaria parasite growth – strain 3D7 (AID 2306);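 also: 0% = DMSO wells and 100% = chloroquine plus artemisinin control wells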; details: P. falciparum 3D7 erythrocytic growth, LDH absorbance, 72 h; at 2 µM; active compounds read high
measure: growth inhibition (%)

[[record]]
molecule = "O=C(Nc1cccc(-c2ccc(-c3nc4ccc(C(F)(F)F)cc4[nH]3)cc2)c1)c1csnn1"
measure = "growth inhibition"
recorded_result = 98

[[record]]
molecule = "COc1ccccc1-c1cccc(Nc2c(Nc3ccc(Cl)cc3)c(=O)c2=O)c1"
measure = "growth inhibition"
recorded_result = 81

[[record]]
molecule = "CNC(=O)c1[nH]c(-c2ccccc2)nc1NC(C)=O"
measure = "growth inhibition"
recorded_result = 100

[[record]]
molecule = "FC(F)(F)c1ccc2nc(-c3cccc(-c4ccc(CNCCc5ccncc5)cc4)c3)[nH]c2c1"
measure = "growth inhibition"
recorded_result = 99

[[record]]
molecule = "CCC[C@@H]([C@@H](CC1CCC(C)CC1)C(=O)N[C@@H](CCCNc1ncccn1)C(=O)Nc1nccs1)N(O)C=O (stereo not given in full)"
measure = "growth inhibition"
recorded_result = 98

[[record]]
molecule = "O=C(N[C@@H](CC1CCCCC1)C(=O)NC1CCCCCC1)c1ccc(O)c(-c2ccc(Cl)c(Cl)c2)c1"
measure = "growth inhibition"
recorded_result = 99

[[record]]
molecule = "O=C(NCCCCN1CCC(O)(c2ccc(Cl)cc2)CC1)c1ccc(Br)cc1"
measure = "growth inhibition"
recorded_result = 82

[[record]]
molecule = "O=C(O)CCCN1CCCC(=C(c2ccccc2)c2ccccc2)C1"
measure = "growth inhibition"
recorded_result = 82

[[record]]
molecule = "CC(=O)Nc1sc(C)c(C)c1CN1CCc2ccccc2C1"
measure = "growth inhibition"
recorded_result = 93

[[record]]
molecule = "CCCCCCCc1c(C)[nH]c2cccc(OC)c2c1=O"
measure = "growth inhibition"
recorded_result = 95

[[record]]
molecule = "C=CCn1c(SCc2c(C)noc2C)nc2scc(-c3cccs3)c2c1=O"
measure = "growth inhibition"
recorded_result = 88

[[record]]
molecule = "CCCOc1cc(Cc2cnc(N)nc2N)cc(OC)c1OC"
measure = "growth inhibition"
recorded_result = 85

[[record]]
molecule = "O=[N+]([O-])c1ccc(C(O)P(=O)(c2ccccc2)c2ccccc2)cc1 (stereo not given)"
measure = "growth inhibition"
recorded_result = 98

[[record]]
molecule = "COc1cc2nc(N3CCC(CNC(=O)c4cc5ccccc5s4)CC3)nc(N)c2cc1OC"
measure = "growth inhibition"
recorded_result = 101

[[record]]
molecule = "Cc1cccc(CNc2nccc3[nH]c4ccccc4c23)c1"
measure = "growth inhibition"
recorded_result = 92

[[record]]
molecule = "NCC1CCCN1Cc1cccc(-c2ccc(-c3nc4ccc(C(F)(F)F)cc4[nH]3)cc2)c1 (stereo not given)"
measure = "growth inhibition"
recorded_result = 100

[[record]]
molecule = "COc1ccc(Cl)cc1N1CCN(CCCNC(=O)c2ccc(-c3nc4cc(Cl)c(C)cc4[nH]3)c(F)c2)CC1"
measure = "growth inhibition"
recorded_result = 99

[[record]]
molecule = "O=C(C=Cc1ccc(Cl)c(Cl)c1)NCCCCCN1CCC(CCCNS(=O)(=O)c2cccc(C(F)(F)F)c2)CC1"
measure = "growth inhibition"
recorded_result = 100

[[record]]
molecule = "CC(C)c1ccc(C=CC(=O)N2CCC(CCN3CCC(c4c[nH]c5ccccc45)CC3)CC2)cc1"
measure = "growth inhibition"
recorded_result = 93

[[record]]
molecule = "NC(=NCc1ccccc1Cl)NCCc1c[nH]c2ccccc12"
measure = "growth inhibition"
recorded_result = 83

